Attribution: PubChem BioAssay (NCI)

System: SW-620 colon
Method summary: NCI tumour cell line growth inhibition, 48 h
Listing of entries alongside the reported TGI.
Measured attribute: TGI

# Smi, Experimental target, Measured attribute, Result
measured = [
    ("CCOC(=O)NC(C(F)(F)F)(C(F)(F)F)P(=O)(OC(C)C)OC(C)C", "SW-620 colon", "TGI", "> 100 µM"),
    ("CCOC(=O)C=C1CCN(C(=O)c2ccccc2)CC1", "SW-620 colon", "TGI", "> 100 µM"),
    ("CS(=O)(=O)CC1=Nc2nnc(CCCCCCCc3nnc4n3C(=O)C(CS(C)(=O)=O)=N4)n2C1=O", "SW-620 colon", "TGI", "> 100 µM"),
]

====

Listing of entries alongside the reported TGI.
Test system: MALME-3M melanoma
Method summary: NCI tumour cell line growth inhibition, 48 h

# Compound, TGI
rows = [
    ("CCOC(=O)Cc1c[nH]c(=S)[nH]c1=O", "> 100 µM"),
    ("N#Cc1ncc(/N=C/c2ccc(N(CCCl)CCCl)cc2)s1", "> 100 µM"),
    ("NC(=O)[C@H]1CCN(c2ncnc(N)c2F)C[C@@H]1N1CCC[C@@H](Nc2cc(Cl)cc(C(F)(F)F)c2)C1=O", "42.8 µM"),
    ("Nc1ncnc2sc(=S)c3c(c12)CCC3", "> 100 µM"),
    ("CN(C)c1ccc2c(NCCCCCCNc3ccnc4cc(N(C)C)ccc34)ccnc2c1", "12.9 µM"),
    ("CN(C(=O)C12C3C4C1C1C2C3C41I)C(C)(C)C (stereo not given)", "> 100 µM"),
    ("CCOP(=O)(OCC)C1CCCCOC1=O (stereo not given)", "> 100 µM"),
    ("CCN1C(=O)N(CC)C2C1NN=c1s/c(=C3\\C(=O)N(C(C)C)c4ccccc43)c(=O)n12 (stereo not given)", "> 100 µM"),
    ("CC12CCC=CC1CCC1C2CCC2(C)C(c3ccc(=O)oc3)CCC12O (stereo not given)", "0.204 µM"),
    ("O=C(CCN1CCCC1)Nc1ccc2c(NCc3ccc(F)cc3)c3ccccc3nc2c1", "2.4 µM"),
]

====

System: SK-OV-3 ovarian
Method summary: NCI tumour cell line growth inhibition, 48 h
Listing of entries alongside the reported TGI.

# Compound, TGI
rows = [
    ("COc1cc(Cn2cc3c(c2)-c2oncc2CC3)cc(OC)c1OC", "> 57.5 µM"),
    ("O=C1CC(=O)NC(=NN2C(=O)CSC2c2ccc(Cl)c(Cl)c2)N1 (stereo not drawn)", "> 100 µM"),
    ("CCOC(=O)c1cc(Sc2ccc(N)c(C(=O)OCC)c2)ccc1N", "> 100 µM"),
]

====

System: NCI/ADR-RES ovarian
Method summary: NCI tumour cell line growth inhibition, 48 h
Listing of entries alongside the reported TGI.
Measured attribute: TGI

# Compound, Result
records = [
    ("CCN=C1C=CC(=C(c2ccc(N(C)C)cc2)c2ccc(N(C)C)cc2)c2ccccc21", "3.94 µM"),
    ("C=CCC(N[C@H](CO)C(C)C)c1cn(C(=O)OCC)c2ccccc12 (some centres not stated)", "61 µM"),
    ("CCOC(=O)CCC(NC(=O)Cc1ccc(Nc2nc3ccccc3nc2-c2ccccc2)cc1)C(=O)OCC (configuration not stated)", "> 100 µM"),
    ("CC1(C)CCC2(C(=O)OC3OC(CO)C(O)C(O)C3O)CC[C@]3(C)C(=CCC4C5(C)CC[C@H](OC6OC(C(=O)O)C(O)C(O)C6O)C(C)(C)C5CCC43C)C2C1 (some centres not stated)", "> 50 µM"),
    ("N#CSc1ncnc2nc[nH]c12", "> 100 µM"),
    ("O=S1(=O)c2cnccc2NC(=NCc2cccc3ccccc23)N1c1ccccc1", "> 100 µM"),
    ("COc1cccc(C2=C(c3cn(C)c4ccccc34)C(=O)NC2=O)c1", "> 25 µM"),
    ("Cc1c(C#N)c2nnn(C)c(=O)n2c1-c1ccccc1", "> 100 µM"),
    ("COc1cc2c(cc1OC)-c1ccc3cc4c(cc3c1N(CCN1CCCC1)C2)OCO4", "53.8 µM"),
    ("O=C1NC(N2CCOCC2)=N/C1=C\\c1cccs1", "> 100 µM"),
    ("NC(=O)[C@H]1CCN(c2ncnc(N)c2F)C[C@@H]1N1CCC[C@@H](Nc2cc(Cl)cc(C(F)(F)F)c2)C1=O", "> 100 µM"),
    ("O=S(=O)(c1ccc(NC(=S)NCc2cccnc2)cc1)N1CCCCC1", "> 100 µM"),
    ("NCCCNCCCNCCCN", "> 100 µM"),
    ("CCOC(=O)/C(N=Nc1ccc(-n2c(C)nc3ccccc3c2=O)cc1)=C(/C)O", "51.8 µM"),
    ("C[C@H]1[C@H](C)N(Cc2ccccc2)P(=O)(C(O)/C=C/c2ccccc2)N1Cc1ccccc1 (some centres not stated)", "> 25 µM"),
    ("Fc1cc(C2=C[C@H](c3ccc(Cl)cc3)NC(=S)N2)c(Cl)cc1Cl", "> 100 µM"),
    ("C=C(C)[C@@H]1CC=C(CO)CC1", "> 10 µM"),
    ("Cc1ccc(NCC2CC/C(=C\\c3ccc(Cl)cc3)C2=O)cc1 (configuration not stated)", "> 80.1 µM"),
    ("COc1ccc(C2c3cc4c(cc3C(O)C3CCC(=O)N23)OCO4)cc1 (configuration not stated)", "> 100 µM"),
    ("CC(C)(C(=O)NN)c1ccccc1", "> 100 µM"),
    ("CCOC(=O)C(c1c[nH]c2ccccc12)(c1c[nH]c2ccccc12)c1c[nH]c2ccccc12", "> 100 µM"),
    ("NC1CC(=O)c2cc(Cl)sc21 (configuration not stated)", "> 100 µM"),
]
